Origin of the recorded values: PubChem BioAssay AID2242

Molecular target: Lysosomal alpha-glucosidase (Homo sapiens) (UniProt P10253)
Assay: qHTS Assay for Activators of Human alpha-Glucosidase as a Potential Chaperone Treatment of Pompe Disease; also: potency is read from the fitted curve at half-maximal effect; nearly all actives have a fitted effect of over 80% in size
Details: purified enzyme, 4-MU-alpha-glucoside fluorescence, 20 min; series mostly up to 76.9 µM
About 720 (0.36%) of roughly 200,000 compounds were called active. Roughly 8% stayed inconclusive and do not appear here. The list shows a part of the results.
Catalogue of compounds with associated Potency

>  <Compound>
CCOC(=O)c1cc2c(=O)n3ccccc3nc2n(CCCOC)c1=NC(=O)C(C)(C)C

>  <Potency>
35.5 µM (active)

$$$$
>  <Compound>
CN1CCc2c(sc3c2C(=O)NC(c2ccco2)N3)C1 (stereo unspecified)

>  <Potency>
31.6 µM (active)

$$$$
>  <Compound>
CCC(=O)Oc1ccc2c(C)c(Cl)c(=O)oc2c1

>  <Potency>
35.5 µM (active)

$$$$
>  <Compound>
Cc1cc(=O)oc2cc(OC(=O)c3ccccc3)ccc12

>  <Potency>
25.1 µM (active)

$$$$
>  <Compound>
COc1cc2c(cc1OC)C(C)N(C(=O)c1cc3c(s1)-c1ccccc1OC3)CC2 (stereo unspecified)

>  <Potency>
39.8 µM (active)

$$$$
>  <Compound>
O=C(c1cc2c(s1)-c1ccccc1OC2)N1CCc2ccccc2C1

>  <Potency>
35.5 µM (active)

$$$$
>  <Compound>
CCOC(=O)c1cc2c(=O)n3ccccc3nc2n(CCOC)c1=NC(=O)c1ccncc1

>  <Potency>
31.6 µM (active)

$$$$
>  <Compound>
CCc1c(C)c2cc(Cl)c(O)c(CN(C)C)c2oc1=O

>  <Potency>
31.6 µM (active)

$$$$
>  <Compound>
O=C1NC(c2ccco2)Nc2sc3c(c21)CCN(Cc1ccccc1)C3 (stereo unspecified)

>  <Potency>
35.5 µM (active)

$$$$
>  <Compound>
CSc1nnc(-c2cccn(Cc3cccc(Cl)c3)c2=O)o1

>  <Potency>
28.2 µM (active)

$$$$
>  <Compound>
COC(=O)Cc1c(C)c2ccc(O)c(CN3CCCC(C)C3)c2oc1=O (stereo unspecified)

>  <Potency>
35.5 µM (active)

$$$$

###

Catalogue of compounds with associated Potency
Biological target: Lysosomal alpha-glucosidase (Homo sapiens) (UniProt P10253)
Assay: qHTS Assay for Activators of Human alpha-Glucosidase as a Potential Chaperone Treatment of Pompe Disease; also: potency is read from the fitted curve at half-maximal effect; nearly all actives have a fitted effect of over 80% in size
Details: purified enzyme, 4-MU-alpha-glucoside fluorescence, 20 min; series mostly up to 76.9 µM
The whole screen tested about 200,000 compounds, of which about 720 (0.36%) were called active. Not shown: some 8% with an inconclusive outcome. The list shows a part of the results.

>  <Compound>
O=C(Oc1cc2oc(=O)c3c(c2cc1Cl)CCCC3)c1cccs1

>  <Potency>
31.6 µM (active)

$$$$
>  <Compound>
Cc1cccn2c(=O)c3cc(C(=O)N4CCN(C(=O)c5ccco5)CC4)n(C)c3nc12

>  <Potency>
35.5 µM (active)

$$$$
>  <Compound>
Cc1ccc(-c2cc(C(=O)NCCCn3ccnc3)c3ccccc3n2)s1

>  <Potency>
28.2 µM (active)

$$$$
>  <Compound>
CC1=C(C(=O)Nc2ccccn2)C(c2cn(C)nc2C)C2=C(CCCC2=O)N1 (stereo not drawn)

>  <Potency>
28.2 µM (active)

$$$$
>  <Compound>
CCC(=O)Oc1ccc2c(c1)OC1(OC(C)=O)OC(C)CC1=C2C (stereo not drawn)

>  <Potency>
5.62 µM (active)

$$$$
>  <Compound>
COc1ccc2cc3cc(C(=O)NCC4CCCO4)oc3nc2c1 (stereo not drawn)

>  <Potency>
35.5 µM (active)

$$$$
>  <Compound>
CCCCOc1ccccc1C1C(C(=O)OC)=CN(CC)C=C1C(=O)OC

>  <Potency>
35.5 µM (active)

$$$$
>  <Compound>
Cc1cc(=O)oc2cc(NS(=O)(=O)c3ccccc3)ccc12

>  <Potency>
35.5 µM (active)

$$$$
>  <Compound>
CCC(N=c1cc(-c2ccc(OC)cc2)oc2ccc(C)cc12)C(=O)O (stereo not drawn)

>  <Potency>
31.6 µM (active)

$$$$
>  <Compound>
c1ccc2c(c1)NC1(CCCC1)n1c-2nc2ccccc21

>  <Potency>
31.6 µM (active)

$$$$
>  <Compound>
CN1CCCc2cc(C#N)c(=O)[nH]c21

>  <Potency>
39.8 µM (active)

$$$$
>  <Compound>
CCC(C)NC(=O)c1cc2cc3ccc(OC)cc3nc2s1 (stereo not drawn)

>  <Potency>
35.5 µM (active)

$$$$
>  <Compound>
Cc1cc(=O)oc2cc(NS(=O)(=O)c3ccc(F)cc3)ccc12

>  <Potency>
35.5 µM (active)

$$$$
>  <Compound>
CCC(O)CNc1nc(SC)nc2sc3c(c12)CCN(C)C3 (stereo not drawn)

>  <Potency>
28.2 µM (active)

$$$$
>  <Compound>
C=CCN(c1ccccc1)S(=O)(=O)c1cccc(C(=O)Oc2ccc3c(C)cc(=O)oc3c2)c1

>  <Potency>
35.5 µM (active)

$$$$
>  <Compound>
CCOc1ccccc1C1C(C(=O)OC)=CN(C)C=C1C(=O)OC

>  <Potency>
35.5 µM (active)

$$$$
>  <Compound>
CCCC1(C)Nc2ccccc2-c2nc3ccccc3n21 (stereo not drawn)

>  <Potency>
31.6 µM (active)

$$$$
>  <Compound>
N#C/C(=C(/O)CCCl)c1ccccn1

>  <Potency>
39.8 µM (active)

$$$$
>  <Compound>
O=C(Oc1ccc2c3c(c(=O)oc2c1)CCCC3)c1ccco1

>  <Potency>
35.5 µM (active)

$$$$
>  <Compound>
CCCc1cc(NCC2CCCO2)n2c(nc3ccccc32)c1C#N (stereo not drawn)

>  <Potency>
35.5 µM (active)

$$$$
>  <Compound>
O=C(Oc1cc2oc(=O)c3c(c2cc1Cl)CCCC3)c1ccco1

>  <Potency>
10 µM (active)

$$$$
>  <Compound>
Cc1cccn2c(=O)c3cc(C(=O)NCCCN4CCCC4=O)n(C)c3nc12

>  <Potency>
35.5 µM (active)

$$$$
>  <Compound>
O=c1oc2ccccc2cc1-c1nc2ccccc2o1

>  <Potency>
31.6 µM (active)

$$$$
